Origin of values: ChEMBL document CHEMBL2029241

System: A549
Assay: Cytotoxicity against human A549 cells after 48 hrs by MTT assay
Format: functional, cell-based
Settings: Homo sapiens, A549, 48 h; read-out: IC50
Exercise: state measured IC50 for each of the compounds provided.
One number for each entry, in µg/mL.

{"Compound": "COc1cc2c(c(OC)c1OC)-c1ccc(OC)c(=O)cc1[C@@H](NC(C)=O)CC2", "IC50 [µg/mL]": 0.2}
{"Compound": "O=C1/C(=C/c2cccc([N+](=O)[O-])c2)CC[C@@H]2[C@H]3CCCN4CCC[C@@H](CN12)[C@@H]34", "IC50 [µg/mL]": 7.6}
{"Compound": "O=C(c1cccs1)C1CC[C@@H]2[C@H]3CCCN4CCC[C@@H](CN2C1=O)[C@@H]34 (some centres undefined)", "IC50 [µg/mL]": 2.3}

Then this compound:
Fill in: IC50 of O=C1/C(=C/c2ccc(Br)cc2)CC[C@@H]2[C@H]3CCCN4CCC[C@@H](CN12)[C@@H]34 is ___
1.9
